Field: MIC MSS 209P. Provide a value for each of the molecules that follow.
# Tested on: MSSA FDA 209P
# TEST DESCRIPTION: In vitro infectivity assay (MIC), broth dilution, Exp. Ex. 1-1
# Assay type: cell-based, Staphylococcus aureus
# ASSAY CONTEXT: MSSA FDA 209P; Mueller-Hinton broth, 35° C., 24 hours

Quick one: MIC MSS 209P of O=C(CCc1ccc(F)cc1)O[C@H]1[C@H](Oc2c(-c3ccc(O)c(O)c3)oc3cc(O)cc(O)c3c2=O)O[C@H](CO)[C@@H](O)[C@@H]1OC(=O)CCc1ccc(F)cc1 [Compound 15d] ?
0.25 µg/mL

Entry to check: CCOc1ccc(CCC(=O)O[C@H]2[C@H](Oc3c(-c4ccc(O)c(O)c4)oc4cc(O)cc(O)c4c3=O)O[C@H](CO)[C@@H](O)[C@@H]2OC(=O)CCc2ccc(OCC)cc2)cc1 [Compound 15b]
2 µg/mL

Entry to check: Cc1ccc(CCC(=O)O[C@H]2[C@H](Oc3c(-c4ccc(O)c(O)c4)oc4cc(O)cc(O)c4c3=O)O[C@H](CO)[C@@H](O)[C@@H]2OC(=O)CCc2ccc(C)cc2)cc1 [Compound 15c]
1 µg/mL

Entry to check: O=C(CCc1ccc(O)cc1)O[C@H]1[C@H](Oc2c(-c3ccc(O)c(O)c3)oc3cc(O)cc(O)c3c2=O)O[C@H](CO)[C@@H](O)[C@@H]1OC(=O)CCc1ccc(O)cc1 [Compound 15a]
4 µg/mL

Entry to check: O=C(O[C@H]1[C@H](Oc2c(-c3ccc(O)c(O)c3)oc3cc(O)cc(O)c3c2=O)O[C@H](CO)[C@@H](O)[C@@H]1OC(=O)c1ccc(F)cc1)c1ccc(F)cc1 [Compound 15g]
2 µg/mL

###

# System: Streptococcus pneumoniae R6
# TEST DESCRIPTION: In vitro infectivity assay (MIC), Exp. Ex. 2-1
# Format: cell-based
# ASSAY CONTEXT: Gram-positive; microdilution, MIC after 24 h
METRIC: MIC S. Pneumoniae R6 (µg/mL)
The response must be a number in µg/mL with no trailing unit.

Quick one: MIC S. Pneumoniae R6 of O=C(CCc1ccc(F)cc1)OC[C@H]1O[C@@H](Oc2c(-c3ccc(O)c(O)c3)oc3cc(O)cc(O)c3c2=O)[C@H](OC(=O)CCc2ccc(F)cc2)[C@@H](O)[C@H]1O [Compound 14i] ?
0.13

Entry to check: O=C(OC[C@H]1O[C@@H](Oc2c(-c3ccc(O)c(O)c3)oc3cc(O)cc(O)c3c2=O)[C@H](OC(=O)c2ccc(F)cc2)[C@@H](O)[C@H]1O)c1ccc(F)cc1 [Compound 14c]
4

Entry to check: O=C(Cc1ccc(F)cc1)OC[C@H]1O[C@@H](Oc2c(-c3ccc(O)c(O)c3)oc3cc(O)cc(O)c3c2=O)[C@H](OC(=O)Cc2ccc(F)cc2)[C@@H](O)[C@H]1O [Compound 14e]
0.5

Entry to check: `CC(=O)OC[C@H]1O[C@@H](Oc2c(-c3ccc(O)c(O)c3)oc3cc(O)cc(O)c3c2=O)[C@H](OC(C)=O)[C@@H](OC(C)=O)[C@H]1OC(C)=O`
128

Entry to check: CCOc1ccc(CCC(=O)OC[C@H]2O[C@@H](Oc3c(-c4ccc(O)c(O)c4)oc4cc(O)cc(O)c4c3=O)[C@H](OC(=O)CCc3ccc(OCC)cc3)[C@@H](O)[C@H]2O)cc1 [Compound 14g]
8
